Where these numbers come from: patent US20240247080A1

Biological target: T1, human GIP receptor (human, UniProt P48546 22-466)
T1 sequence (looked up): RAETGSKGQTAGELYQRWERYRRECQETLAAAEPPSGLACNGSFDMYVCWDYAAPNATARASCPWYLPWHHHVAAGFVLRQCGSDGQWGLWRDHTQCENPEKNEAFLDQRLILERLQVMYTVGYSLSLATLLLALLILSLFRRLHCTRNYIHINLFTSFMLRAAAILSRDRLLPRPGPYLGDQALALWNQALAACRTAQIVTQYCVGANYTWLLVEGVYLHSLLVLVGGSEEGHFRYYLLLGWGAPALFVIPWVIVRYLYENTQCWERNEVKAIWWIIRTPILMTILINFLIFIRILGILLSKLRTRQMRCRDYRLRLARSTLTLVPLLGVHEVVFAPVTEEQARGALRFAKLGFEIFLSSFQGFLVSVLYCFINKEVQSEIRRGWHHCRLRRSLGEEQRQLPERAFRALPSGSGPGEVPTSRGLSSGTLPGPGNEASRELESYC
Assay: cell-based or functional assay
Starred links: 1 amine or outer side, 2 acyl side, 3 side chain; linkers in the order of their positions; H or OH if unused. Non-standard residues stand in square brackets, D forms with d. Groups on a side chain read outwards from the residue. No end group written: not given here. *: point of attachment. C20 diacid = O=C(O)CCCCCCCCCCCCCCCCCCC(=O)*; γGlu = O=C(O)[C@H](CCC(=O)[*:2])N[*:1]; εLys = N[C@@H](CCCCN[*:1])C(=O)[*:2]; Aib = CC(C)(N)C(=O)O
experimentalEndpoint: EC50, CreLuc assay, 0.5% hP (nM)
Write it as a number; the unit nM goes unstated.

{"binder": "YXEGTFTSDYSIXLEKEKQXAFVEWLIKGGPSSGASLRHYYNWLTRQRY (Aib at 2, 13, 20; K28 side chain: C20DA-gGlu-gGlu-gGlu-gGlu-gGlu-gGlu-eLys; C-terminal NH2) [Compound 69]", "experimentalEndpoint": "EC50, CreLuc assay, 0.5% hP", "numericResult": 0.8}

GET /values?readout=EC50, CreLuc assay, 0.5% hP&item= Y[Aib]EGTFTSDYSI[Aib]LEKQAQ[Aib]EFVQWLIK([εLys-γGlu-γGlu-γGlu-γGlu-γGlu-γGlu-γGlu-C20 diacid])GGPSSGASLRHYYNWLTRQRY-NH2 (also: TFA salt) [Compound 43]
0.64
